Tested on: HEK293T (UBE3A T485A transfected, BAR Wnt reporter)
PROTOCOL_DETAILS: Renilla luciferase signal (cell health) relative to plate median (fold (linear ratio)); higher = higher Renilla signal
ASSAY_CONDITIONS: concentration: 0.01 uM; 24 h
The full ranking holds about 1,100 compounds; the median of “Renilla luciferase signal (cell health) relative to plate median” is about 0.97, and the highest 2% start at about 1.6. The sample as a whole holds a higher share of the highest values than the screen did.
Classify as follows. Reported Renilla luciferase signal greater than or equal to 1: criterion met. Reported Renilla luciferase signal below: criterion not met.

Example entries and their recorded answers appear below.
CCCCOC(=O)[C@@H](C)Oc1ccc(Oc2ccc(C(F)(F)F)cn2)cc1 : criterion met
CCOC(=O)C(C)Oc1ccc(Oc2nc3ccc(Cl)cc3o2)cc1 (centres undefined) : criterion not met

For this molecule, is measured Renilla luciferase signal 1 or higher? CCCCCCC(C)OC(=O)COc1nc(F)c(Cl)c(N)c1Cl (centres undefined)
criterion met

For this molecule, is measured Renilla luciferase signal 1 or higher? COc1ccc(-c2ccc(=N)n(CCCC(=O)O)n2)cc1
criterion not met
